test: Effective concentration required to achieve 50% inhibition of HIV-1 IIIB multiplication in PBM (peripheral blood mononuclear) cells; format: functional, Homo sapiens
Please respond with Satisfied when measured EC50 is strictly beneath 3 µM, and with Not satisfied in all other cases.

Hello, I'm reviewing records and need to know if EC50 of CCc1c(Sc2cc(C)cc(C)c2)n(CCCCC(=O)NCCCCCCCCCCNC(=O)CCc2cn(C3CC(N=[N+]=[N-])C(CO)O3)c(=O)[nH]c2=O)c(=O)[nH]c1=O (configuration not stated) is below 3 µM. Could you check?
Not satisfied

I wonder whether [N-]=[N+]=NC1CC(n2cc(CCC(=O)NCCCCN)c(=O)[nH]c2=O)OC1CO (configuration not stated) has EC50 below 3 µM. Can you tell?
Not satisfied

Given the entry CCOC(=O)CCn1c(=O)c(C)cn(C2CC(N=[N+]=[N-])C(CO)O2)c1=O (configuration not stated) , would its reported EC50 be below 3 µM?
Satisfied

Does this compound meet the criterion EC50 < 3 µM? COC(=O)CCc1cn(C2CC(N=[N+]=[N-])C(CO)O2)c(=O)[nH]c1=O (configuration not stated)
Not satisfied

Is the reported EC50 for Cc1cn(C2CC(N=[N+]=[N-])C(CO)O2)c(=O)n(CCC(=O)NCCCCCCCCCCN)c1=O (configuration not stated) strictly below 3 µM?
Not satisfied

Please indicate whether the reported EC50 of [N-]=[N+]=NC1CC(n2cc(CCC(=O)NCCCCCCCCCCN)c(=O)[nH]c2=O)OC1CO (configuration not stated) is strictly below 3 µM.
Not satisfied

For this compound, is EC50 lower than 3 µM? CCc1c(Sc2cc(C)cc(C)c2)n(CCCCC(=O)NCCCCNC(=O)CCc2cn(C3CC(N=[N+]=[N-])C(CO)O3)c(=O)[nH]c2=O)c(=O)[nH]c1=O (configuration not stated)
Not satisfied

I wonder whether NCCCCCCCCCCCCNc1ccn(C2CCC(CO)O2)c(=O)n1 (configuration not stated) has EC50 below 3 µM. Can you tell?
Satisfied

In plain terms, does CCc1c(Sc2cc(C)cc(C)c2)n(CCCCC(=O)NCCCCCCCCCCNC(=O)CCn2c(=O)c(C)cn(C3CC(N=[N+]=[N-])C(CO)O3)c2=O)c(=O)[nH]c1=O (configuration not stated) come in under 3 µM for EC50?
Not satisfied

Dear reviewer, please state whether COC(=O)CCCNC(=O)CCc1cn(C2CC(N=[N+]=[N-])C(CO)O2)c(=O)[nH]c1=O (configuration not stated) has EC50 strictly beneath 3 µM.
Not satisfied

Find out if reported EC50 for CCc1c(Sc2cc(C)cc(C)c2)n(CCCCC(=O)NCCCCCCCCCCCCNc2ccn(C3CCC(CO)O3)c(=O)n2)c(=O)[nH]c1=O (configuration not stated) is less than 3 µM
Satisfied

Identify whether the compound CCc1c(Sc2cc(C)cc(C)c2)n(CCCCC(=O)OC)c(=O)[nH]c1=O records EC50 below 3 µM.
Satisfied

###

target: Human immunodeficiency virus type 1 reverse transcriptase (Human immunodeficiency virus 1); assay: Cytotoxic concentration which reduces the cell viability of HIV-1 LAI infected T4 lymphoblastoid CEM-SS cells by 50%; format: functional, cell-based
QUANTITY: CC50

# CC50 (molecule: CCc1c(C)nc(O)c(NC(=O)CNC(=O)CNC(=O)OC(C)(C)C)c1Cc1cc(C)cc(C)c1 ) is > 100 µM

Field CC50 (entry CCc1c(C)nc(O)c(NC(=O)CCCCCCCCCN)c1Cc1cc(C)cc(C)c1 ) reads > 66 µM

Lab note: measured CC50 of CCc1c(Sc2cc(C)cc(C)c2)n(CCCCC(=O)NCCCCCCCCCCNC(=O)CCn2c(=O)c(C)cn(C3CC(N=[N+]=[N-])C(CO)O3)c2=O)c(=O)[nH]c1=O (stereo not drawn) was > 25 µM

CC50 reported for this molecule CCc1c(Sc2cc(C)cc(C)c2)n(CCCCC(=O)NCCCCCCCCCCNC(=O)CCc2cn(C3CC(N=[N+]=[N-])C(CO)O3)c(=O)[nH]c2=O)c(=O)[nH]c1=O (stereo not drawn) : > 25 µM

The molecule listed as CCc1c(C)nc(O)c(NC(=O)CCCC(=O)O)c1Cc1cc(C)cc(C)c1 shows CC50 equal to 28 µM

Reported CC50 of COC(=O)CCCNC(=O)CCc1cn(C2CC(N=[N+]=[N-])C(CO)O2)c(=O)[nH]c1=O (stereo not drawn) : > 100 µM

Lookup result for NCCCCCCCCCCCCNc1ccn(C2CCC(CO)O2)c(=O)n1 (stereo not drawn) ; measured CC50: 48 µM

The recorded CC50 for entry CCOC(=O)CCn1c(=O)c(C)cn(C2CC(N=[N+]=[N-])C(CO)O2)c1=O (stereo not drawn) equals > 100 µM

The reported numbers originate from ChEMBL document CHEMBL1133178.
